Entries and their measured relative viability follow.
system: NCI-H596; experiment: relative viability (nuclei count vs DMSO), 5 days (fraction); higher = more cells survive; settings: first compound 8 µM
Please give only the number in your answer, with no unit.

Here's what some known entries look like.
In: Report relative viability for O=c1[nH]c2ccccc2n1C1CCN(CCCC(c2ccc(F)cc2)c2ccc(F)cc2)CC1 [Pimozide] + Nc1nc2[nH]cc(CCc3ccc(C(=O)N[C@@H](CCC(=O)O)C(=O)O)cc3)c2c(=O)[nH]1 [Pemetrexed] (partner 0.2 µM) please.
Out: 0.479

In: Report relative viability for O=c1[nH]c2ccccc2n1C1CCN(CCCC(c2ccc(F)cc2)c2ccc(F)cc2)CC1 [Pimozide] + Nc1ncn([C@H]2C[C@H](O)[C@@H](CO)O2)c(=O)n1 [Decitabine] (partner 2 µM) please.
Out: 1.08

In: Report relative viability for O=c1[nH]c2ccccc2n1C1CCN(CCCC(c2ccc(F)cc2)c2ccc(F)cc2)CC1 [Pimozide] + C[C@]1(O)C[C@@H](c2nc(-c3ccc4ccc(-c5ccccc5)nc4c3)c3c(N)nccn32)C1 [Linsitinib] (partner 1 µM) please.
Out: 0.998

In: Report relative viability for O=c1[nH]c2ccccc2n1C1CCN(CCCC(c2ccc(F)cc2)c2ccc(F)cc2)CC1 [Pimozide] + N=C(N)NC(=N)NCCc1ccccc1 [Phenformin] (partner 250 µM) please.
Out: 0.897

--- query ---
In: Report relative viability for O=c1[nH]c2ccccc2n1C1CCN(CCCC(c2ccc(F)cc2)c2ccc(F)cc2)CC1 [Pimozide] + CS(=O)(=O)N1CCN(Cc2cc3nc(-c4cccc5[nH]ncc45)nc(N4CCOCC4)c3s2)CC1 [Pictilisib] (partner 1 µM) please.
Out: 0.344

* * *

test system: NCI-H2023; assay: relative viability (nuclei count vs DMSO), 5 days (fraction); higher = more cells survive; conditions: first compound 158.11 µM
MEASUREMENT NAME: relative viability
Please give only the number in your answer, with no unit.

In: Report relative viability for O=C(O)CCCCC(CCSCc1ccccc1)SCc1ccccc1 (stereo not given) [CPI-613] + COc1cccc2cc(-c3nc([C@H]4CC[C@H](C(=O)O)CC4)n4ncnc(N)c34)[nH]c12 [OSI-027] (partner 0.5 µM) please.
Out: 0.0518

In: Report relative viability for O=C(O)CCCCC(CCSCc1ccccc1)SCc1ccccc1 (stereo not given) [CPI-613] + CS(=O)(=O)N1CCN(Cc2cc3nc(-c4cccc5[nH]ncc45)nc(N4CCOCC4)c3s2)CC1 [Pictilisib] (partner 1 µM) please.
Out: 0.0548

In: Report relative viability for O=C(O)CCCCC(CCSCc1ccccc1)SCc1ccccc1 (stereo not given) [CPI-613] + CC(=O)c1c(C)c2cnc(Nc3ccc(N4CCNCC4)cn3)nc2n(C2CCCC2)c1=O [Palbociclib] (partner 0.5 µM) please.
Out: 0.0317

More entries:
In: Report relative viability for O=C(O)CCCCC(CCSCc1ccccc1)SCc1ccccc1 (stereo not given) [CPI-613] + CC(=O)Nc1cccc(-n2c(=O)n(C3CC3)c(=O)c3c(Nc4ccc(I)cc4F)n(C)c(=O)c(C)c32)c1 [Trametinib] (partner 0.02 µM) please.
Out: 0.0445

In: Report relative viability for O=C(O)CCCCC(CCSCc1ccccc1)SCc1ccccc1 (stereo not given) [CPI-613] + CC1(C)CCC(c2ccc(Cl)cc2)=C(CN2CCN(c3ccc(C(=O)NS(=O)(=O)c4ccc(N[C@H](CCN5CCOCC5)CSc5ccccc5)c(S(=O)(=O)C(F)(F)F)c4)cc3)CC2)C1 [Navitoclax] (partner 0.5 µM) please.
Out: 0.103
